# Test system: Dual specificity mitogen-activated protein kinase kinase 5 (Homo sapiens)
# Sequence (Q13163 whole entry): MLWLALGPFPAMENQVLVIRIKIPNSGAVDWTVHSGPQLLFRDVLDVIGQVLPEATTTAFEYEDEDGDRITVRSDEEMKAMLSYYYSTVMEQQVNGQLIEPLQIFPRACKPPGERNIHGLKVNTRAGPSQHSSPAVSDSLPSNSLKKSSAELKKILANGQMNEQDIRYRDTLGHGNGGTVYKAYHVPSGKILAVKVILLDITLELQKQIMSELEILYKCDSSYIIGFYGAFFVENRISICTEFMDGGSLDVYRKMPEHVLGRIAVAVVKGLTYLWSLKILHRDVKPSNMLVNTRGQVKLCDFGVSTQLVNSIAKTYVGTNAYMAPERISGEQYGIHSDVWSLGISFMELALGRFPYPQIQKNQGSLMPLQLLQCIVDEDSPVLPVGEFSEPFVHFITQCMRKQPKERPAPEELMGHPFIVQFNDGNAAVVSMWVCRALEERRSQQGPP
Observed property: pIC50
pIC50 (log units): -log10 of the concentration in mol/L.

// query Identify measured pIC50 corresponding to `COc1nc(-c2cc(-c3cnn(C)c3)cnc2N)cc2c1C(=O)N(CC(F)(F)F)CC2`
// result 5.58

FYI, the data here is from ChEMBL document CHEMBL6109120.
